biological target: Ubiquitin-conjugating enzyme E2 G2 (Homo sapiens) (UniProt P60604); assay: Binding affinity to recombinant TEV cleavage site-fused-His6-tagged Ube2g2 (unknown origin) expressed in Escherichia coli Rosetta2 (DE3) assessed as molecular weight of compound-protein conjugate at 5 uL measured after overnight incubation at pH 8.5 by LC/MS analysis (reference value: 18491 Da)
Sequence (P60604 whole entry, the tested form may be a part): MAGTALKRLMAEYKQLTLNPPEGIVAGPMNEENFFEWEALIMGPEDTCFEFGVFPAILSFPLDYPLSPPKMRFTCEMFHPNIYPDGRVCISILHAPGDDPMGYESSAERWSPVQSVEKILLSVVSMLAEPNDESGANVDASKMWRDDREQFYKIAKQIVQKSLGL
The source made the active and inactive calls. No cut-off for these calls is given here.
metric: Activity

Answered examples (4):
C=CC(=O)N[C@@H](/C=C/C(=O)OCC)Cc1ccc(-c2cc(Cl)cc(Cl)c2)cc1 18900 Da
CCOC(=O)/C=C/[C@H](Cc1ccc(-c2cc(Cl)cc(Cl)c2)cc1)NC(=O)OC(C)(C)C 18900 Da
C=CCC(=O)N[C@@H](CO)Cc1ccc(-c2cc(Cl)cc(Cl)c2)cc1 inactive
C=CCC(=O)N[C@@H](Cc1ccc(-c2cc(Cl)cc(Cl)c2)cc1)[C@H](O)[C@@H](O)C(=O)OCC inactive

Ask: Value wanted: Activity (Ubiquitin-conjugating enzyme E2 G2 (Homo sapiens) (UniProt P60604)) of entry `C=CC(=O)N[C@@H](Cc1ccc(-c2cc(Cl)cc(Cl)c2)cc1)[C@H](O)[C@@H](O)C(=O)O`
Reply: inactive

Ask: Which measured Activity belongs to `C=CCC(=O)N[C@H](CO)Cc1ccc(-c2cc(Cl)cc(Cl)c2)cc1` , tested on Ubiquitin-conjugating enzyme E2 G2 (Homo sapiens) (UniProt P60604)?
Reply: inactive

Ask: Activity of `C=CCC(=O)N[C@H](Cc1ccc(-c2cc(Cl)cc(Cl)c2)cc1)[C@@H](O)[C@H](O)C(=O)O` on Ubiquitin-conjugating enzyme E2 G2 (Homo sapiens) (UniProt P60604)?
Reply: inactive

Ask: Quick check: Activity on Ubiquitin-conjugating enzyme E2 G2 (Homo sapiens) (UniProt P60604), item `C=CC(=O)N[C@H](Cc1ccc(-c2cc(Cl)cc(Cl)c2)cc1)[C@@H](O)[C@H](O)C(=O)O` ?
Reply: 18900 to 19300 Da

Ask: Provide value of Activity for this record tested with Ubiquitin-conjugating enzyme E2 G2 (Homo sapiens) (UniProt P60604): `C=CCC(=O)N[C@@H](Cc1ccc(-c2cc(Cl)cc(Cl)c2)cc1)[C@H](O)[C@@H](O)C(=O)O`
Reply: inactive
